# measurement_protocol: Clearance in Wistar Han rat at 1 mg/kg, iv measured upto 7 hrs by LC-MS/MS analysis
# Assay type: ADME, organism-based
# condition_context: in vivo

[
  {
    "smiles": "CNC(=O)c1cc(C(=O)N[C@H]2C[C@@H]2C)cc2c1OC[C@@]2(CO)c1ccccc1",
    "reading_unit": "mL/min/kg",
    "clearance": 60
  },
  {
    "smiles": "CNC(=O)c1cc(C(=O)N[C@H]2[C@@H]3C[C@@H](O)C[C@@H]32)cc2c1OC[C@@]2(C)c1ccccc1",
    "reading_unit": "mL/min/kg",
    "clearance": 55
  },
  {
    "smiles": "CNC(=O)c1cc(C(=O)N[C@H]2[C@@H]3COC[C@@H]32)cc2c1OC[C@@]2(C)c1ccccc1",
    "reading_unit": "mL/min/kg",
    "clearance": 61
  },
  {
    "smiles": "CNC(=O)c1cc(C(=O)NC2CC2)cc2c1OC[C@H]2c1ccccc1",
    "reading_unit": "mL/min/kg",
    "clearance": 34
  }
]
